Cited source: ChEMBL document CHEMBL4616706

Molecular target: UniProt P08183
Sequence (P08183 whole entry): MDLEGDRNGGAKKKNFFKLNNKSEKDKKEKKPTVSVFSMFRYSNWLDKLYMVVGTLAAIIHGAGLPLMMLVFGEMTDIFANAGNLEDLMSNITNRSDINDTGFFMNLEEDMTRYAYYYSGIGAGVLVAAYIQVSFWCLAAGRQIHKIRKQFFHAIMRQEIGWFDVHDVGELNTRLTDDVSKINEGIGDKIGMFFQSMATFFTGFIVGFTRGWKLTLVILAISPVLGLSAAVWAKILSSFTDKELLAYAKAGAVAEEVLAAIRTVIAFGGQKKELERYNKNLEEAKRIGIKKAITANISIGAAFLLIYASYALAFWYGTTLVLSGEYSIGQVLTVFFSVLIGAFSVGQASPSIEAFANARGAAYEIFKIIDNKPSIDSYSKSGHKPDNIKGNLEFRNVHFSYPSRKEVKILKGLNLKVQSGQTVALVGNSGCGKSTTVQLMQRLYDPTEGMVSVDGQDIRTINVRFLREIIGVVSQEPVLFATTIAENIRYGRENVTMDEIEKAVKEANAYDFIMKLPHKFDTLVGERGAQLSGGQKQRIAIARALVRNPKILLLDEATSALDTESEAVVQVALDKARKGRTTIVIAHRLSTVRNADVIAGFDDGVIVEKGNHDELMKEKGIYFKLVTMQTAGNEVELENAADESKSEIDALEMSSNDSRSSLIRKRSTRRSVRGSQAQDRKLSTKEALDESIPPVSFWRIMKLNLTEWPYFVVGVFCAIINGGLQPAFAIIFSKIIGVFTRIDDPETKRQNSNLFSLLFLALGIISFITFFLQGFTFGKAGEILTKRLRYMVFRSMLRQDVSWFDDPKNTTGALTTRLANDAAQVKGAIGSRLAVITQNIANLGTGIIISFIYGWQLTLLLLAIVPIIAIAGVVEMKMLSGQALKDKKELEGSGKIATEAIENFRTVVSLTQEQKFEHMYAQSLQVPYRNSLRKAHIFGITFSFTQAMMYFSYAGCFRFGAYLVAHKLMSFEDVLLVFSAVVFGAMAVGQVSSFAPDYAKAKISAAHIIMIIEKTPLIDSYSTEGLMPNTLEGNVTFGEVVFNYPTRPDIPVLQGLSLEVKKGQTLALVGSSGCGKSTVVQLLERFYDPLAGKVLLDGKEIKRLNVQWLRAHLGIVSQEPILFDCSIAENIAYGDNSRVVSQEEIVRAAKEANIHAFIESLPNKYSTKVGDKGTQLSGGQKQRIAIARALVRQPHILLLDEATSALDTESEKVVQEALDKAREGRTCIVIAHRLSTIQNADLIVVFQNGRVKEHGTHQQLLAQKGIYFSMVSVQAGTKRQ
Assay: Substrate activity at human P-gp assessed as efflux ratio
Assay type: ADME
Settings: not told
We begin with a simple list: items and their reported efflux ratio.
// keep it numeric: no unit symbol after the value

Cc1cc(N2C[C@H]3CC[C@@H](C2)[C@@H]3Nc2nc3n(n2)CCCN3c2ccc(F)c(F)c2)ncn1 | 3.2
Cc1cc(N2C[C@H]3CC[C@@H](C2)[C@@H]3Nc2nc3n(n2)CCCC[C@H]3c2ccc(F)c(F)c2F)ncn1 | 2.4
COc1cc(N2C[C@H]3CC[C@@H](C2)[C@@H]3Nc2nc3n(n2)CCCN3c2ccc(F)c(F)c2)ccn1 | 1
Cc1cc(N2C[C@H]3CC[C@@H](C2)[C@@H]3Nc2nc3n(n2)CCCCC3c2ccc(F)c(F)c2F)cnn1 (mixture of isomers) | 20
Cc1cc(N2C[C@H]3CC[C@@H](C2)[C@@H]3Nc2nc3n(n2)CCCCC3c2ccc(F)c(F)c2F)ncn1 (mixture of isomers) | 2.1

Please report the measured efflux ratio for Cc1cc(N2C[C@H]3CC[C@@H](C2)[C@@H]3Nc2nc3n(n2)CCCN3c2ccc(F)c(F)c2)cnn1 3.3

Write down efflux ratio measured for item Fc1ccc(C2CCCCn3nc(N[C@@H]4[C@@H]5CC[C@H]4CN(c4cnnc(Cl)c4)C5)nc32)c(F)c1F (mixture of isomers) 4.3
